These entries and their values trace back to the supplement of paper PMC8728848.

Measured glycan array binding signal (z-score), listed per entry.
# measurement_target: Gal3S(b1-4)[Fuc(a1-3)]GlcNAc
# run_description: glycan array binding signal (z-score within array); higher = stronger binding
# protocol_conditions: glycan notation: IUPAC condensed, linker removed
The full list was thinned out, with the strongest signals kept by preference.

# binder, glycan array binding signal (z-score)
measured = [
    ("Gal 10 (Homo sapiens), Q05315 (protein) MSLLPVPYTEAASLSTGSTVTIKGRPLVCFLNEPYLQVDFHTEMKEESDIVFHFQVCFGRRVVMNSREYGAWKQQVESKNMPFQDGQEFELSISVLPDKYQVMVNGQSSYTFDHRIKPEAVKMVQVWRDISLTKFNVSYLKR", -0.495),
    ("Clec49 (Caenorhabditis elegans) (protein) MTRLTLLLFGLLGAATAQTCNTGGIYNEQFNRCYQYFTAPAQFSFAEQQCNLLGGHLASVQNGQENALLQSNAANSFKRSNYSDYWIGATDLETSGTWKWTDPSVTFDYSNWQLGEPQSGSDCAIQDKGDGTWSAIGCTSYRPYVCVTPVIMTATCPPITTPIPTTCPTPAPCPIKQCVPSCDQGWTYFSPTDFCYRVYHGEKFNDAEASCVLLGGHLASIHSLTENTFVNNIASCGIKEGKYEHLAWIGMRKVGQDWVWTDGTPSDYFNWAPKQPDNPKKELCVQTAPDLSHDKWYENWNNLECNEVMRAYICKKASIHN", -0.647),
]
